molecular target: SpRvs167; test: SPOT peptide array binding signal intensity (averaged, normalized) (arbitrary units (background-subtracted, floor 0; scale differs between SH3 domains)); higher = stronger binding of the SH3 domain to the peptide
measured_attribute: SPOT peptide array binding signal intensity

[
  {
    "binder": "EREKALPPIPFTTTL",
    "result_modifier": "=",
    "reported_measurement": 38.7
  },
  {
    "binder": "LLRRTIPKRPFYHVL",
    "result_modifier": "=",
    "reported_measurement": 227
  },
  {
    "binder": "SAPDIPPRSPNRNAH",
    "result_modifier": "=",
    "reported_measurement": 1600
  },
  {
    "binder": "TTAPALPSLPPPPLL",
    "result_modifier": "≤",
    "reported_measurement": 0
  }
]
